measurement notes: Percent inhibition of human liver microsome cytochrome P-450 mediated hexobarbital 3'-hydroxylase activity in the presence of NADPH
experimental conditions: microsomes
Reported Inhibition is given for each of the following compounds.

compound="COC(=O)C1=C(C)N=C(C)/C(=C(/O)OC)C1Cc1ccccc1 (centres undefined)" value_observed=80%
compound="CCOC(=O)C1=C(C)N=C(C)/C(=C(/O)OCC)C1CC (centres undefined)" value_observed=82%
compound="COC(=O)C1=C(C)N=C(C)/C(=C(/O)OC)C1C1CC=CCC1 (centres undefined)" value_observed=82%

Give the reported value of Inhibition for this record: COC(=O)C1=C(C)N=C(C)/C(=C(/O)OC)C1C(C)C (centres undefined)
73%

----------
experimental system: Cytochrome P450 3A4 (Homo sapiens, UniProt P08684)
Sequence (P08684 whole entry): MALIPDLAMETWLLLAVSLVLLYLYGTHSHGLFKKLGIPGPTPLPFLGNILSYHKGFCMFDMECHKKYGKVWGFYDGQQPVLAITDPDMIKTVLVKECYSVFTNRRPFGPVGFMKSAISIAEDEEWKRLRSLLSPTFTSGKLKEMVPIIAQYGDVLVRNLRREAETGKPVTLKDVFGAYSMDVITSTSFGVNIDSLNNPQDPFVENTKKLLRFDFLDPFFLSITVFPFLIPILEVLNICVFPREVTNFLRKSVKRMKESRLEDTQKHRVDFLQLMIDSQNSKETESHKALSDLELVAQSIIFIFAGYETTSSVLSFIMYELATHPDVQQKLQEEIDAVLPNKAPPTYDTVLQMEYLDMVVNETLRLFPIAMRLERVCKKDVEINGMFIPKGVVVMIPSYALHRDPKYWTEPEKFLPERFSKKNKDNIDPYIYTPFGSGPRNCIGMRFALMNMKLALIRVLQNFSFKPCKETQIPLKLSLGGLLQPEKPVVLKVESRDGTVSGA
measurement notes: Rate of Oxidation in human liver microsomes is measured as mean (nmol product) formed / min per nmol cytochrome P-450
// Rate of oxidation lookup, one value per entry

Indicate the recorded Rate of oxidation value for this molecule: COC(=O)C1=C(C)N=C(C)/C(=C(\O)OC)C1c1ccc(C)cc1 (configuration not stated)
0.51

----------
experimental system: Cytochrome P450 3A4 (Homo sapiens, UniProt P08684)
measurement notes: Rate of Oxidation in human liver microsomes is measured as mean (nmol product) formed / min per nmol cytochrome P-450
readout name: Rate of oxidation
Enter the number alone.

compound=CCOC(=O)C1=C(C)NC(C)=C(C(=O)OCC)C1c1ccccc1 value_observed=0.51
compound="COC(=O)C1=C(C)N=C(C)/C(=C(/O)OC)C1c1cccc(Cl)c1 (stereo unspecified)" value_observed=0.5
compound="COC(=O)C1=C(C)N=C(C)/C(=C(\\O)OC)C1c1cccc(C#N)c1 (stereo unspecified)" value_observed=0.41
compound="COC(=O)C1=C(C)N=C(C)/C(=C(/O)OC)C1c1ccc(C(F)(F)F)cc1 (stereo unspecified)" value_observed=0.45
compound="COC(=O)C1=C(C)N=C(C)/C(=C(/O)OC)C1c1c(F)cccc1Cl (stereo unspecified)" value_observed=0.76

Let us move to another entry and its Rate of oxidation.
Provide one value: measured Rate of oxidation of COC(=O)C1=C(C)NC(C)=C(C(=O)OC)C1c1ccccc1
0.53
